test: Pharmacokinetic analysis of plasma after intravenous and oral dosing; conditions: female, CD-1, mouse, plasma, iv, 15 mg kg^−1, Concentration, Figure 6c; Time 0.167 h; individual replicates
READOUT: concentration at 0.167 h (ng/mL)
Write the number in ng/mL without appending the unit.

Sample O=C(NOCCO)c1ccc(F)c(F)c1Nc1ccc(I)cc1F [PD0316684, reference compound] ; concentration at 0.167 h observed: 89.6

* * *

assay: Pharmacokinetic analysis of plasma after intravenous and oral dosing; details: female, CD-1, mouse, plasma, po, 200 mg kg^−1, Concentration; Time 7 h; individual animals; Supplementary Figure 12b
READOUT: concentration at 7 h (ng/mL)
Write the number in ng/mL without appending the unit.

Sample O=C(O)c1ccc(F)c(F)c1Nc1ccc(I)cc1F [PD315209, reference compound] ; concentration at 7 h observed: 1070
